- target_or_system: UniProt O15111
- Sequence (O15111 1-745): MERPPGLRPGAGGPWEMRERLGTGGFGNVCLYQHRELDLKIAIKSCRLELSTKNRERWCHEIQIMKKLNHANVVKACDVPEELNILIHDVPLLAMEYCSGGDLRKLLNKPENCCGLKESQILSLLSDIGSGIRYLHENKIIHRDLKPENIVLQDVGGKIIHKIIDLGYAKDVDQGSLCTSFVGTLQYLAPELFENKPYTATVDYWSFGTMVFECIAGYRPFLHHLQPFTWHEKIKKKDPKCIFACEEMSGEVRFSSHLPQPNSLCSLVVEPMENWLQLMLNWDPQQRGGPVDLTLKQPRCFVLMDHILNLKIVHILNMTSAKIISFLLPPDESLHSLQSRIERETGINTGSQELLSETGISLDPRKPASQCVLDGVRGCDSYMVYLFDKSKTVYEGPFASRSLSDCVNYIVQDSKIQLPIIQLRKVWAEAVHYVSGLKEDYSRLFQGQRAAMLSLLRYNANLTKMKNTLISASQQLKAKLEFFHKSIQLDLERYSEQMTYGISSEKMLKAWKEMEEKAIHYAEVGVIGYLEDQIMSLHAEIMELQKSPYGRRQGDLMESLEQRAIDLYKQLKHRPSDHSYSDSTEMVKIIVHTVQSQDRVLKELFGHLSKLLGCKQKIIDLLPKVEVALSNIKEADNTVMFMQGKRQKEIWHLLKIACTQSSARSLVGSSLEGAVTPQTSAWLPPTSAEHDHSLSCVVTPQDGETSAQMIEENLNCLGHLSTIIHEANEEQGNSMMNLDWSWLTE
- assay_details: in-house DELFIA kinase assay, IKKα
- Assay type: biochemical
experimental_readout: Ki (nM)

(a) CN1CCN(C(=O)c2cccc(-c3cc4c(-c5ccc6[nH]nc(N)c6c5)ccnc4[nH]3)c2)CC1 [5v SU1312]
(b) CS(=O)(=O)Nc1cccc(-c2cc3c(-c4ccc5[nH]nc(N)c5c4)ccnc3[nH]2)c1 [5j SU1288]
(c) Nc1n[nH]c2ccc(-c3ccnc4[nH]c(-c5cc(F)cc(OCc6ccccc6)c5)cc34)cc12 [6a SU1371]
Request: Sort low-to-high on Ki, please. Reply: labels, ordered per the request.
Response: b, a, c

---

- target_or_system: IKKβ (Homo sapiens)
- Sequence (O14920 1-756): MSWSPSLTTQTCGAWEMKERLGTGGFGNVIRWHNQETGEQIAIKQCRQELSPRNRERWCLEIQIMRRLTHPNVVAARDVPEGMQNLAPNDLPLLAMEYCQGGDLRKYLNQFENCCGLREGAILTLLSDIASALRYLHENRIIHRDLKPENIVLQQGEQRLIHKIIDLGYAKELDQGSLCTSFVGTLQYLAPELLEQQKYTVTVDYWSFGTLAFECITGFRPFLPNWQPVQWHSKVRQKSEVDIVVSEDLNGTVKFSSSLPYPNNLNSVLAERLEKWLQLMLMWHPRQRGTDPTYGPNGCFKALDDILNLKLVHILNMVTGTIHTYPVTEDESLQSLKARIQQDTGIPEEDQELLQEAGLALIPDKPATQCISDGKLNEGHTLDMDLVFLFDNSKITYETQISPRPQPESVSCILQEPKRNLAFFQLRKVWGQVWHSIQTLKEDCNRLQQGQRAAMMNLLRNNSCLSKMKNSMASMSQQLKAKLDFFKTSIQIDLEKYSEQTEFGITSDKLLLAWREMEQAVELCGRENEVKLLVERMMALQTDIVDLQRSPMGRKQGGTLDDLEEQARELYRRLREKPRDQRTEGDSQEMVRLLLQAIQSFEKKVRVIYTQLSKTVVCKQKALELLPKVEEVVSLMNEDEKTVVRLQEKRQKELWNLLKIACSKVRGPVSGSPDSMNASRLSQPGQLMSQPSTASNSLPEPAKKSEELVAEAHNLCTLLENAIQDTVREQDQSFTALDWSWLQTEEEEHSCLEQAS
- assay_details: in-house DELFIA kinase assay, IKKβ
experimental_readout: Ki (nM)

Nc1n[nH]c2ccc(-c3ccnc4[nH]c(-c5cc(F)cc(OCc6ccccc6)c5)cc34)cc12 5030

(1) CN1CCN(C(=O)c2cccc(-c3cc4c(-c5ccc6[nH]nc(N)c6c5)ccnc4[nH]3)c2)CC1
(2) Nc1n[nH]c2ccc(-c3ccnc4[nH]c(-c5ccnc(OCc6ccncc6)c5)cc34)cc12
Request: // task: argmin of Ki over [ 1 , 2 ] In your reply, give the label of the chosen option.
Response: 2

(P) COc1ccc(COc2cccc(-c3cc4c(-c5ccc6[nH]nc(N)c6c5)ccnc4[nH]3)c2)cc1
(Q) Nc1n[nH]c2ccc(-c3ccnc4[nH]c(-c5ccnc(OCCc6ccccc6)c5)cc34)cc12
Request: // task: argmin of Ki over [ P , Q ] In your reply, give the label of the chosen option.
Response: P
(P: 166 nM, Q: 1600 nM)

---

- target_or_system: IKKα (Homo sapiens)
- assay_details: in-house DELFIA kinase assay, IKKα
- Type: biochemical
experimental_readout: Ki (nM)

compound	experimental_readout	numeric_readout
Nc1n[nH]c2ccc(-c3ccnc4[nH]c(-c5cccc(OCC6CCOCC6)c5)cc34)cc12 [5x SU1335]	Ki	8
Nc1n[nH]c2ccc(-c3ccnc4[nH]c(-c5ccc(OCc6ccccc6)nc5)cc34)cc12 [6d SU1350]	Ki	12
CCOc1ccccc1-c1cc2c(-c3ccc4[nH]nc(N)c4c3)ccnc2[nH]1 [5b SU1368]	Ki	8

(1) Nc1n[nH]c2ccc(-c3ccnc4[nH]c(-c5cccc(OCc6ccccn6)c5)cc34)cc12 [5w SU1324]
(2) Cc1ccc(S(=O)(=O)Nc2cccc(-c3cc4c(-c5ccc6[nH]nc(N)c6c5)ccnc4[nH]3)c2)cc1 [5t SU1278]
(3) COCCC(=O)Nc1cccc(-c2cc3c(-c4ccc5[nH]nc(N)c5c4)ccnc3[nH]2)c1 [5l SU1317]
Request: Output the entries ranked by Ki from maximum down to minimum. Reply: labels, ordered per the request.
Response: 1, 2, 3
(1: 16 nM, 2: 10 nM, 3: 6 nM)

---

- target_or_system: IKKβ (Homo sapiens, UniProt O14920)
- assay_details: in-house DELFIA kinase assay, IKKβ
- Format: biochemical
experimental_readout: Ki (nM)

Here are 5 molecules together with their reported answers.
molecule	target_or_system	unit_abbrev	Ki
COCCC(=O)Nc1cccc(-c2cc3c(-c4ccc5[nH]nc(N)c5c4)ccnc3[nH]2)c1 [5l SU1317]	IKKβ (Homo sapiens, UniProt O14920)	nM	25
Nc1n[nH]c2ccc(-c3ccnc4[nH]c(-c5ccccc5OCc5ccccc5)cc34)cc12 [5q SU1353]	IKKβ (Homo sapiens, UniProt O14920)	nM	1060
Nc1n[nH]c2ccc(-c3ccnc4[nH]c(-c5cncc(OCc6ccccc6)c5)cc34)cc12 [6e SU1337]	IKKβ (Homo sapiens, UniProt O14920)	nM	1550
Nc1n[nH]c2ccc(-c3ccnc4[nH]c(-c5cccc(CNC6CCCC6)c5)cc34)cc12 [5n SU1550]	IKKβ (Homo sapiens, UniProt O14920)	nM	191
Nc1n[nH]c2ccc(-c3ccnc4[nH]c(-c5cc(O)cc(F)c5)cc34)cc12 [5f SU1384]	IKKβ (Homo sapiens, UniProt O14920)	nM	42

(A) COc1cccc(-c2cc3c(-c4ccc5[nH]nc(N)c5c4)ccnc3[nH]2)c1 [5e SU1332]
(B) Cc1ccc(S(=O)(=O)Nc2ccc(-c3cc4c(-c5ccc6[nH]nc(N)c6c5)ccnc4[nH]3)cc2)cc1 [5u SU1283]
(C) COCCOCc1cc(OCc2ccccc2)cc(-c2cc3c(-c4ccc5[nH]nc(N)c5c4)ccnc3[nH]2)c1 [6b SU1358]
Request: Output the entries ranked by Ki from maximum down to minimum. Reply: labels, ordered per the request.
Response: C, B, A
(C: 1220 nM, B: 67 nM, A: 40 nM)

---

- target_or_system: IKKβ (Homo sapiens, UniProt O14920)
- Sequence (O14920 1-756): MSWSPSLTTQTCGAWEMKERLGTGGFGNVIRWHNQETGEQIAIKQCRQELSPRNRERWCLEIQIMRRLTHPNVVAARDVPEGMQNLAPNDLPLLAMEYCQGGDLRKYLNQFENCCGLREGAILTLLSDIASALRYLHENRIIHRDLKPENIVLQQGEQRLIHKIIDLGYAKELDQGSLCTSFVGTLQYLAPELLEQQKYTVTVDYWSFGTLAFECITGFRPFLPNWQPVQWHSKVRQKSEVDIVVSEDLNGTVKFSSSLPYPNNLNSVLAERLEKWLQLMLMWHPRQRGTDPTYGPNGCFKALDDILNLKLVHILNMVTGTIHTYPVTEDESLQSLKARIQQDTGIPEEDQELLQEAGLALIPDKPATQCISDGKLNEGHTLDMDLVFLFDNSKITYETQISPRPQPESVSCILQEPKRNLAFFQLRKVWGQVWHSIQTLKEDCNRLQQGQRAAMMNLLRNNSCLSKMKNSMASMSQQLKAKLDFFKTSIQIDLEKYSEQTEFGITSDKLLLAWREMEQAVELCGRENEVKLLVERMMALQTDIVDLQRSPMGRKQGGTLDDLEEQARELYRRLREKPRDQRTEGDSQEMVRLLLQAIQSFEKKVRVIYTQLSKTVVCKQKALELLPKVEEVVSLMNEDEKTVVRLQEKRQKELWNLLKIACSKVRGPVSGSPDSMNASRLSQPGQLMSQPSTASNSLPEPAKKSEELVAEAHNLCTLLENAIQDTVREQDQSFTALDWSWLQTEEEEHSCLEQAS
- assay_details: in-house DELFIA kinase assay, IKKβ
pKi: −log10 of the molar value.
experimental_readout: pKi

Here are 7 molecules together with their reported answers.
Nc1cccc(-c2cc3c(-c4ccc5[nH]nc(N)c5c4)ccnc3[nH]2)c1 7.55
Nc1n[nH]c2ccc(-c3ccnc4[nH]c5c(c34)CCCC5)cc12 7.11
Nc1n[nH]c2ccc(-c3ccnc4[nH]c(-c5cccc(CNc6ccccc6)c5)cc34)cc12 6.33
Nc1n[nH]c2ccc(-c3ccnc4[nH]c(-c5cccc(C(=O)O)c5)cc34)cc12 6.77
CCOc1ccccc1-c1cc2c(-c3ccc4[nH]nc(N)c4c3)ccnc2[nH]1 7.07
Nc1n[nH]c2ccc(-c3ccnc4[nH]c(-c5cccc(OCc6ccccc6)c5)cc34)cc12 6.17
COc1cc(F)cc(-c2cc3c(-c4ccc5[nH]nc(N)c5c4)ccnc3[nH]2)c1 7.49

(a) Nc1n[nH]c2ccc(-c3ccnc4[nH]c(-c5cccc(OCCN6CCOCC6)c5)cc34)cc12
(b) Nc1n[nH]c2ccc(-c3ccnc4[nH]c(-c5cc(F)nc(CNc6ccccc6)c5)cc34)cc12
(c) Nc1n[nH]c2ccc(-c3ccnc4[nH]c(-c5ccc(OCc6ccccc6)cc5)cc34)cc12
(d) CS(=O)(=O)Nc1cccc(-c2cc3c(-c4ccc5[nH]nc(N)c5c4)ccnc3[nH]2)c1
Request: Please produce an ascending ranking of these molecules based on pKi. Reply: labels, ordered per the request.
Response: b, c, d, a
